In this section, each of the molecules is paired with its reported composite z-score.
# TARGET DESC: Follistatin (Homo sapiens)
# PROTOCOL: follistatin binders on small-molecule microarrays, primary screen, biochemical, small-molecule microarray, 635/667 nm fluorescence (AID 1132)
# MEASUREMENT SETUP: FST binding, 635 nm fluorescence, higher = more signal
Reply: number alone, nothing else.

• CCOC(=O)CCN1C(=O)[C@H]2[C@H]3[C@H](O)[C@H](O)CC(=NOCC=C(C)CCC=C(C)C)[C@@H]3CC[C@H]2C1=O = 0.696

Reported composite z-score, molecule CC(=O)OC[C@H]1O[C@H](CC=NOCC[C@@H]2C=C[C@H](OC(C)=O)[C@@H](COC(C)=O)O2)C=C[C@@H]1OC(C)=O : ____
0.447

Reported composite z-score, molecule CCc1cc2c(nc1CC)CCN(CCC(C)=NOCC[C@@H]1C=C[C@H](OC(C)=O)[C@@H](COC(C)=O)O1)C2 : ____
0.823

Reported composite z-score, molecule C#CCCCON=C1C[C@@H](O)[C@@H](O)[C@@H]2[C@@H]3C(=O)N(CC)C(=O)[C@@H]3CC[C@H]12 : ____
-0.473

Reported composite z-score, molecule COc1ccc(OC[C@H]2CN3[C@@H](CC[C@@H](C)[C@@H]3c3ccc(Br)cc3)C(=O)O2)cc1 : ____
0.385

Reported composite z-score, molecule COC(=O)[C@H](C)NC(=O)CCC1CC(OC(=O)NCc2cccc3ccccc23)CC2(CCCC(COC(=O)NCc3ccccc3)O2)O1 (some centres undefined) : ____
0.729

Reported composite z-score, molecule CC(C)CON=C1C[C@@H](O)[C@@H](O)[C@@H]2[C@@H]3C(=O)N(c4ccc(F)cc4F)C(=O)[C@@H]3CC[C@@H]12 : ____
0.585

Reported composite z-score, molecule COC(=O)CC=C1c2ccccc2[C@H](OC)[C@H]1C : ____
-0.0211

Reported composite z-score, molecule COc1ccc(O[C@H]2C=C[C@@H](c3ccccc3)O[C@@H]2CO)cc1 : ____
0.36

Reported composite z-score, molecule CCN1C(=O)[C@H]2[C@H]3[C@H](O)[C@H](O)CC(=NNC(=O)OCc4ccccc4)[C@@H]3CC[C@H]2C1=O : ____
0.0633

Reported composite z-score, molecule C#CCCCON=C1[C@H]2CCn3c(=O)n([C@@H](CC)c4ccccc4)c(=O)n3[C@H]2[C@H](O)[C@@H]2O[C@H]12 : ____
0.587

Reported composite z-score, molecule C[C@@H]1CC[C@@H](C(=O)O)N[C@H]1c1cccc(N2CCOCC2)c1 : ____
0.769

Reported composite z-score, molecule CC=CC1=C(CO)[C@H](O)[C@H]2O[C@H]2[C@@H]1O : ____
0.937

Reported composite z-score, molecule CO[C@@H]1COC(=O)[C@@H]2CCCN2C(=O)[C@@H](C)COC(=O)CCC[C@H]1C : ____
0.529

Reported composite z-score, molecule CCOC(=O)[C@H](CC(C)C)NC(=O)CCC1CC(OC(=O)NCCc2ccc(F)cc2)CC2(CCCC(COC(=O)NCCOC)O2)O1 (some centres undefined) : ____
0.839

Reported composite z-score, molecule CCOC(=O)[C@H](CC(C)C)NC(=O)CCC1CC(OC(=O)NCc2ccc3c(c2)OCO3)CC2(CCCC(COC(=O)NCCc3ccc(Cl)cc3)O2)O1 (some centres undefined) : ____
0.62

Reported composite z-score, molecule CO[C@H]1COC(=O)[C@H](CCSC)NC(=O)CC=C[C@@H](C)[C@H](OC)COC(=O)[C@@H](OCc2ccccc2)C=C[C@@H]1C : ____
1.23
